test: Antioxidant activity assessed as ABTS radical scavenging activity at 2 uM by spectrophotometric analysis; format: functional
In this section, each of the molecules is paired with its reported Activity.
Answers without a unit are incomplete; give the number and then its unit.

Some molecules with known Activity results, for comparison:
entry_smiles: O=C(Nc1ccc([N+](=O)[O-])cc1)C1=C2c3ccccc3S(=O)(=O)N2CC1
Activity: 54.7%
//
entry_smiles: Cc1ccccc1NC(=O)C1=C2c3ccccc3S(=O)(=O)N2CC1
Activity: 62.5%
//
entry_smiles: COc1ccc(NC(=O)C2=C3c4ccccc4S(=O)(=O)N3CC2)cc1
Activity: 48.2%

Name the recorded Activity for `O=C(Nc1ccccc1)C1=C2c3ccccc3S(=O)(=O)N2CC1` .
46.9%

Name the recorded Activity for `CC(C)[C@@H]1CC[C@@H](C)C[C@H]1OC(=O)C1=C2c3ccccc3S(=O)(=O)N2CC1` .
60.3%

// returns reported Activity for input `O=C(OCCCl)C1=C2c3ccccc3S(=O)(=O)N2CC1`
64.8%

So what's the measured Activity for this one? `CC1(C)[C@H]2CC[C@]1(C)[C@H](OC(=O)C1=C3c4ccccc4S(=O)(=O)N3CC1)C2`
62.7%

I have this molecule here, `CCOC(=O)C1=C2c3ccccc3S(=O)(=O)N2CC1` , and I need its recorded Activity.
46.7%

Requested read-out: Activity. Entry: `COC(=O)C1=C2c3ccccc3S(=O)(=O)N2CC1`
63.8%

Values were extracted from ChEMBL document CHEMBL4190309.
